targetOfAssay: CIB1 and αIIb interaction (CIB1-GST : F-αIIb peptide) (Homo sapiens)
Construct: made in house; host or cells: BL-21 plus RIL cells (E. coli)
experimentDescription: FP assay, 1536-well qHTS format (primary and confirmatory screen)
Assay type: binding
measurementContext: qHTS primary screen hits, Table S2; negative = inhibition
quantityKind: Efficacy (%)
Only the number, expressed in %, is required.

INSERT INTO assay_data (compound, quantitykind, value) VALUES
  ('CCN(CC)CCOc1ccc(Nc2ncc3cc(-c4c(Cl)cccc4Cl)c(=O)n(C)c3n2)cc1.Cl.Cl.O', 'Efficacy (%)', -36),
  ('CCOC(=O)c1nnc(NS(=O)(=O)c2ccc(NC(=O)Cc3ccc(Cl)c(Cl)c3)cc2)s1.O=C(O)C(F)(F)F', 'Efficacy (%)', -28),
  ('Cc1c(-c2cccc3c(CCCOc4cccc5ccccc45)c(C(=O)O)n(Cc4cccnc4)c23)c(COc2ccc(N3CCN(S(=O)(=O)N(C)C)CC3)cc2)nn1C', 'Efficacy (%)', -34),
  ('Cc1cc(SCc2sc(-c3ccc(Cl)cc3)nc2C)ccc1OCC(=O)O.O=C(O)C(F)(F)F', 'Efficacy (%)', -32),
  ('CC(C)(C)OC(=O)c1csc(-n2nc(-c3ccc(F)c(F)c3)c(-c3ccccc3)c2O)n1.O=C(O)C(F)(F)F', 'Efficacy (%)', -24);

The compound identified as Cc1ccn2c(Nc3ccc4c(c3)OCO4)c(-c3ccccn3)nc2c1.O=C(O)C(F)(F)F registered its Efficacy (%) at -51

According to the records, this compound N#C[C@@H]1C[C@@H]2C[C@@H]2N1C(=O)[C@@H](N)C12CC3CC(CC(O)(C3)C1)C2 displays Efficacy (%) of -49

Form field Efficacy (%), entry COc1nn(CSP(=S)(OC)OC)c(=O)s1 : -47

Data point: O=C(O)C(F)(F)F.O=C1c2ccccc2NC(c2ccc(-c3cccc([N+](=O)[O-])c3)o2)N1O (stereo not drawn) ; Efficacy (%) = -23

Entry Nc1nc(N)c2nc(CNc3ccc(C(=O)NC(CCC(=O)O)C(=O)O)cc3)cnc2n1 (stereo not drawn) — recorded Efficacy (%) = -49

* * *

compounds and their reported Efficacy (%)
targetOfAssay: CIB1 and αIIb interaction (CIB1-GST : F-αIIb peptide) (Homo sapiens, UniProt Q99828)
Construct: made in house; host or cells: BL-21 plus RIL cells (E. coli)
Sequence (Q99828 whole entry): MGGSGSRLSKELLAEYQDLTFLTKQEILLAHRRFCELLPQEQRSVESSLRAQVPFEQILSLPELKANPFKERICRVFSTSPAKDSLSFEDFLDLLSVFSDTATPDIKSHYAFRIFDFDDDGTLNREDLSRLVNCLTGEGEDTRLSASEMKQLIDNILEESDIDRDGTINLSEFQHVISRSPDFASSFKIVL
experimentDescription: FP assay, 1536-well qHTS format (primary and confirmatory screen)
Format: binding
measurementContext: qHTS primary screen hits, Table S2; negative = inhibition
API: value field is a number in %; no unit string.

Solved cases (7 shown):
INSERT INTO measurements (compound, targetofassay, quantitykind, value) VALUES
  ('Cc1c2c(=O)n(-c3ccccc3)[nH]c2cc(=O)n1CCc1ccccc1.O=C(O)C(F)(F)F', 'CIB1 and αIIb interaction (CIB1-GST : F-αIIb peptide) (Homo sapiens, UniProt Q99828)', 'Efficacy (%)', -28),
  ('O=S(=O)(Nc1cc(O)cc2cccnc12)c1ccc(Cl)s1', 'CIB1 and αIIb interaction (CIB1-GST : F-αIIb peptide) (Homo sapiens, UniProt Q99828)', 'Efficacy (%)', -37),
  ('Nc1ccc2c3c(cccc13)C(=O)NC2=O', 'CIB1 and αIIb interaction (CIB1-GST : F-αIIb peptide) (Homo sapiens, UniProt Q99828)', 'Efficacy (%)', -70),
  ('Cc1ccc(S(=O)(=O)Nc2ccc(Br)cc2C(=O)Nc2nc(-c3ccccc3)cs2)cc1.O=C(O)C(F)(F)F', 'CIB1 and αIIb interaction (CIB1-GST : F-αIIb peptide) (Homo sapiens, UniProt Q99828)', 'Efficacy (%)', -26),
  ('Cc1ccc(NS(=O)(=O)c2ccc3[nH]c(=O)[nH]c3c2)cc1C.O=C(O)C(F)(F)F', 'CIB1 and αIIb interaction (CIB1-GST : F-αIIb peptide) (Homo sapiens, UniProt Q99828)', 'Efficacy (%)', -68),
  ('O=C(O)C(F)(F)F.O=C1CCCC2=C1C(c1ncccc1C(F)(F)F)N=C(Nc1nc3ccccc3o1)N2 (centres unmarked)', 'CIB1 and αIIb interaction (CIB1-GST : F-αIIb peptide) (Homo sapiens, UniProt Q99828)', 'Efficacy (%)', -47),
  ('O=C([O-])CCNc1cc(N2CCc3ccccc3CC2)nc(-c2ccccn2)n1.[Na+]', 'CIB1 and αIIb interaction (CIB1-GST : F-αIIb peptide) (Homo sapiens, UniProt Q99828)', 'Efficacy (%)', -28);

Consider the record given below.
Tested on CIB1 and αIIb interaction (CIB1-GST : F-αIIb peptide) (Homo sapiens, UniProt Q99828): CC1=C(C(=O)N(C)C)C(c2ccccc2Br)N=C(Nc2nc3ccccc3o2)N1.O=C(O)C(F)(F)F (centres unmarked) . Observed Efficacy (%): -27

Source: paper PMC11249646
